- Assayed Target: T1, cynoSIRPα (XP_015313155), Extracellular Domain + His-Tag (cynomolgus monkey)
- T1 construct: also called CySIRPα XP_015313155; not shown: His-Tag
- T1 chain: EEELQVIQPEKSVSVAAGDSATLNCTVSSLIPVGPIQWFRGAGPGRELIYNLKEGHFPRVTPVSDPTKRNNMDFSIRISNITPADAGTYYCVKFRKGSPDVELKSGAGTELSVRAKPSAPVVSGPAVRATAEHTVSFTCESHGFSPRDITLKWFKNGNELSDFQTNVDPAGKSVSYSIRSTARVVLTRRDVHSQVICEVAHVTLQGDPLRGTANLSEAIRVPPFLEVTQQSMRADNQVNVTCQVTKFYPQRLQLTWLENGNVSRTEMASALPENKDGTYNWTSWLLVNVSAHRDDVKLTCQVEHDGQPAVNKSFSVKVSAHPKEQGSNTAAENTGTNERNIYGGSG
- Protocol Description: SPR, antibody captured on Protein A/G, ECD-His analyte, steady-state fit
- Protocol: The binding kinetics of anti-SIRPα antibodies to various SIRPα analytes are determined by surface plasmon resonance (SPR) using a Biacore 8K+(Cytiva). 1×HBS-EP+(Cytiva) is used as running buffer and for all the dilutions unless stated otherwise. […]
Measured Parameter: Kd (nM)
Only the number, expressed in nM, is required.

Antibody A16 (antibody, human IgG1, kappa, L234A L235A, V domains shown) VH: EVQLVESGGGLVQPGGSLRLSCAASGFTLSSYDMHWVRQAPGKGLEWVSAIGTAGDTYYTGSVKGRFTISRENAKNSLYLQMNSLRAGDTAVYYCVRGGVWDDAFDIWGQGTMVTVSS VL: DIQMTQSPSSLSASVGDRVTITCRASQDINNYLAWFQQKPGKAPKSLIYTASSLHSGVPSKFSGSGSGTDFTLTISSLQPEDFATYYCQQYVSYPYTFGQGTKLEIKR : 174

Suppose we examine the binder Antibody A4 (antibody, human IgG1, kappa, L234A L235A, V domains shown) VH: EVQLVESGGGLVQPGGSLRLSCAASGFTLSSYDMHWVRQAPGKGLEWVSAIGTAGDTYYTGSVKGRFTISRENAKNSLYLQMNSLRAADTAVYYCVRGGVWDDAFDIWGQGTMVTVSS VL: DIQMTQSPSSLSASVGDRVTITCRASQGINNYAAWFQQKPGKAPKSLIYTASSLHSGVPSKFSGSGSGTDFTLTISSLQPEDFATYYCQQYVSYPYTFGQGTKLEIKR ; what Kd value has been reported? 420

I have this binder here, Antibody A14 (antibody, human IgG1, kappa, L234A L235A, V domains shown) VH: EVQLVESGGGLVQPGGSLRLSCAASGFTLSSYDMHWVRQAPGKGLEWVSAIGTAGDTYYTGSVKGRFTISRENAKNSLYLQMNSLRASDTAVYYCVRGGVWDDAFDIWGQGTMVTVSS VL: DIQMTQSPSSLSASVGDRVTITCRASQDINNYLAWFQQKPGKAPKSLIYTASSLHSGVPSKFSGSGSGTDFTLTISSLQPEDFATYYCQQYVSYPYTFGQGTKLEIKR , and I need its recorded Kd. 176

Reference source for all entries: patent US20230012273A1
